Every entry's value here was drawn from PubChem BioAssay (NCI).

Tested on: U251 CNS
Classes used: 1 for active, 0 for inactive

{"MOLECULE": "CCC(c1ccc(OC)cc1)C(CC)c1ccc(O)c(CN2CCCC2)c1 (centres undefined)", "ASSIGNED LABEL": 0}
{"MOLECULE": "Oc1ccc2ccccc2c1N=Nc1ccccn1", "ASSIGNED LABEL": 0}
{"MOLECULE": "COc1c(B(O)O)cccc1-c1nc2c(F)cc3[nH]ncc3c2c2c1CCCC2", "ASSIGNED LABEL": 0}
{"MOLECULE": "CC1(C)CCC2(C(=O)O)CC[C@]3(C)C(=CCC4C5(C)CC[C@H](OC6OC(C(=O)O)C(O)C(OC7OC(CO)C(O)C(O)C7O)C6OC6OC(CO)C(O)C(O)C6O)C(C)(C)C5CCC43C)C2C1 (some centres undefined)", "ASSIGNED LABEL": 0}
{"MOLECULE": "CCOC(=O)c1c(C)[nH]c(/C=C2\\N=C(c3ccc[nH]3)C=C2OC)c1C", "ASSIGNED LABEL": 1}
{"MOLECULE": "Cc1cccc2c1NC(=O)[C@@]21[C@H](C(=O)c2ccccc2)[C@]2(C(=O)Nc3ccccc32)[C@H]2CCCN21", "ASSIGNED LABEL": 0}
{"MOLECULE": "O=C1/C=C/[C@@H](O)[C@@H]2C[C@@H](O)C[C@H]2/C=C/CCC[C@H](CO)O1", "ASSIGNED LABEL": 0}
{"MOLECULE": "COc1cc(C)[nH]c(=O)c1CN1CCc2c(Cl)cc([C@H](OC)C3COC3)c(Cl)c2C1=O", "ASSIGNED LABEL": 0}
{"MOLECULE": "COC(=O)c1cc2c3c(cc(O)c2[nH]1)N(C(=O)C1Cc2cc(OC)c(OC)c(OC)c2N1)CC3CCl (centres undefined)", "ASSIGNED LABEL": 1}

###

System: CAKI-1 renal
Experiment: NCI tumour cell line growth inhibition, 48 h
Please mark 1.0 if the recorded TGI is equal to or greater than 4 µM, and 0.0 if it falls below.

{"COMPOUND": "COC(OC)(c1ccccc1)C(I)I", "EXPERIMENTAL SYSTEM": "CAKI-1 renal", "ASSIGNED LABEL": 1.0}
{"COMPOUND": "COc1ccc(CCc2ccc(O)c(C(=O)O)c2)cc1OC", "EXPERIMENTAL SYSTEM": "CAKI-1 renal", "ASSIGNED LABEL": 1.0}
{"COMPOUND": "CC(=O)Nc1ccc2oc(=O)c3ccccc3c2c1", "EXPERIMENTAL SYSTEM": "CAKI-1 renal", "ASSIGNED LABEL": 1.0}
{"COMPOUND": "Cc1ccc(S(=O)(=O)/N=C(\\[O-])C2=C(c3ccccc3)NN(C)c3nc4cccc[n+]4nc32)cc1", "EXPERIMENTAL SYSTEM": "CAKI-1 renal", "ASSIGNED LABEL": 1.0}
{"COMPOUND": "C#Cc1cccc(Nc2ncnc3ccc(-c4cnc(Cl)c(NS(C)(=O)=O)c4)cc23)c1", "EXPERIMENTAL SYSTEM": "CAKI-1 renal", "ASSIGNED LABEL": 0.0}
{"COMPOUND": "CCC1CCCCN1C(=S)N/N=C(\\C)c1ccccn1 (configuration not stated)", "EXPERIMENTAL SYSTEM": "CAKI-1 renal", "ASSIGNED LABEL": 0.0}
{"COMPOUND": "COc1cccc2c1C(=O)c1c(O)c3c(c(O)c1C2=O)C[C@@](O)(/C(C)=N/NC(=O)c1ccccc1)C[C@@H]3OC1CC(N)C(O)C(C)O1 (some centres not stated)", "EXPERIMENTAL SYSTEM": "CAKI-1 renal", "ASSIGNED LABEL": 0.0}
{"COMPOUND": "O=C(N/N=C\\c1ccc([N+](=O)[O-])cc1)c1ccccc1Nc1ccccc1C(=O)N/N=C/c1ccc([N+](=O)[O-])cc1", "EXPERIMENTAL SYSTEM": "CAKI-1 renal", "ASSIGNED LABEL": 1.0}
{"COMPOUND": "CC(C)NC(=O)OCc1c(COC(=O)NC(C)C)c(-c2ccc[n+](COC(=O)C3CC3)c2)n2c1CCC2", "EXPERIMENTAL SYSTEM": "CAKI-1 renal", "ASSIGNED LABEL": 1.0}
{"COMPOUND": "O=C(O)CCSC(=O)Nc1cccc([N+](=O)[O-])c1", "EXPERIMENTAL SYSTEM": "CAKI-1 renal", "ASSIGNED LABEL": 1.0}
{"COMPOUND": "O=C(NCCCCNCCCNC(=O)c1cc(-c2ccccc2)nc2ccccc12)c1cc(-c2ccccc2)nc2ccccc12", "EXPERIMENTAL SYSTEM": "CAKI-1 renal", "ASSIGNED LABEL": 0.0}
{"COMPOUND": "COc1ccc(-n2c3c(c4c(CN(C)C)c(O)ccc42)C(=O)c2ccccc2C3=O)cc1", "EXPERIMENTAL SYSTEM": "CAKI-1 renal", "ASSIGNED LABEL": 1.0}
{"COMPOUND": "O=C1OC(C2OC(=O)c3cc(O)c(O)c(O)c3-c3c(O)c(O)c4oc(=O)c5c(c(O)c(O)c6oc(=O)c3c4c65)-c3c(cc(O)c(O)c3O)C(=O)OCC2O)C2OC(=O)c3c(c(O)c(O)c(O)c3[C@H]2O)-c2c1cc(O)c(O)c2O (some centres not stated)", "EXPERIMENTAL SYSTEM": "CAKI-1 renal", "ASSIGNED LABEL": 1.0}
{"COMPOUND": "CCC(O)(c1ccc(OC)cc1)C(c1ccc(OCc2ccccc2)cc1)c1ccc(OCc2ccccc2)cc1 (configuration not stated)", "EXPERIMENTAL SYSTEM": "CAKI-1 renal", "ASSIGNED LABEL": 1.0}
{"COMPOUND": "COc1c(B(O)O)cccc1-c1nc2c(F)cc3[nH]ncc3c2c2c1CCCC2", "EXPERIMENTAL SYSTEM": "CAKI-1 renal", "ASSIGNED LABEL": 0.0}
{"COMPOUND": "CC1OC(O[C@H]2/C=C/C=C/C=C/C=C/C=C/C=C/C=C/[C@H](C)[C@@H](O)[C@@H](C)[C@H](C)OC(=O)C[C@H](O)C[C@H](O)CC[C@@H](O)[C@H](O)C[C@H](O)C[C@]3(O)C[C@H](O)[C@@H](C(=O)O)[C@H](C2)O3)C(O)C(N)C1O (some centres not stated)", "EXPERIMENTAL SYSTEM": "CAKI-1 renal", "ASSIGNED LABEL": 1.0}
{"COMPOUND": "O=C1NC(=O)C(=O)C(c2nc3ccccc3s2)C1=O", "EXPERIMENTAL SYSTEM": "CAKI-1 renal", "ASSIGNED LABEL": 1.0}
{"COMPOUND": "O=C(COc1ccc(Cl)cc1)N1N=C(c2ccc([N+](=O)[O-])o2)CC1(O)c1ccccc1 (configuration not stated)", "EXPERIMENTAL SYSTEM": "CAKI-1 renal", "ASSIGNED LABEL": 1.0}
{"COMPOUND": "CCn1cc(C(=O)N/N=C/c2cccc(F)c2)c(=O)c2cc(F)c(N3CCNC(C)C3)c(F)c21 (configuration not stated)", "EXPERIMENTAL SYSTEM": "CAKI-1 renal", "ASSIGNED LABEL": 0.0}
{"COMPOUND": "C=CCCC(C)N(C(=O)OC(C)(C)C)S(=O)(=O)c1ccc(C)cc1 (configuration not stated)", "EXPERIMENTAL SYSTEM": "CAKI-1 renal", "ASSIGNED LABEL": 1.0}
{"COMPOUND": "O=c1c(-c2ccccc2Cl)coc2cc(F)ccc12", "EXPERIMENTAL SYSTEM": "CAKI-1 renal", "ASSIGNED LABEL": 1.0}
{"COMPOUND": "OCCN=C1c2ccccc2C2C(c3ccccc31)C1c3ccccc3C(=NCCO)c3ccccc3C21 (configuration not stated)", "EXPERIMENTAL SYSTEM": "CAKI-1 renal", "ASSIGNED LABEL": 1.0}
{"COMPOUND": "CC1=C(/C=C/C2=CC(=C\\C(=O)O)/CC(C3=C(C)CCCC3(C)C)C2)C(C)(C)CCC1 (configuration not stated)", "EXPERIMENTAL SYSTEM": "CAKI-1 renal", "ASSIGNED LABEL": 1.0}
{"COMPOUND": "CC(=O)N1N=C(N)CC1=O", "EXPERIMENTAL SYSTEM": "CAKI-1 renal", "ASSIGNED LABEL": 1.0}
{"COMPOUND": "CC1(C)C[C@H](O)[C@H](O)[C@]23C(=O)O[C@H](O)[C@H]2C(C=O)=CC[C@@H]13", "EXPERIMENTAL SYSTEM": "CAKI-1 renal", "ASSIGNED LABEL": 1.0}
{"COMPOUND": "COc1cc(C)[nH]c(=O)c1CN1CCc2c(Cl)cc([C@H](OC)C3COC3)c(Cl)c2C1=O", "EXPERIMENTAL SYSTEM": "CAKI-1 renal", "ASSIGNED LABEL": 1.0}
{"COMPOUND": "CC(C)CC1[C@@H](OCc2ccccc2)COS(=O)(=O)N1Cc1ccccc1 (some centres not stated)", "EXPERIMENTAL SYSTEM": "CAKI-1 renal", "ASSIGNED LABEL": 1.0}
{"COMPOUND": "COc1cc2c(cc1OC)C(Cc1ccccc1CCCl)=NCC2", "EXPERIMENTAL SYSTEM": "CAKI-1 renal", "ASSIGNED LABEL": 1.0}
{"COMPOUND": "CC([C@H]1CCC2C3CCC4CC5(CC[C@]4(C)C3CC[C@@]21C)c1ccccc1C(=O)N5C)N(C)C (some centres not stated)", "EXPERIMENTAL SYSTEM": "CAKI-1 renal", "ASSIGNED LABEL": 1.0}
{"COMPOUND": "Cc1ccc(Nc2nc(=O)[nH]c(=O)[nH]2)cc1N=[N+]=[N-]", "EXPERIMENTAL SYSTEM": "CAKI-1 renal", "ASSIGNED LABEL": 1.0}
{"COMPOUND": "O=C1c2cccc3cc([N+](=O)[O-])cc(c23)C(=O)N1CCN1CCCC1", "EXPERIMENTAL SYSTEM": "CAKI-1 renal", "ASSIGNED LABEL": 0.0}
{"COMPOUND": "CC(=N/NC(=S)N1CCCCC1)/C(C)=N\\NC(=S)N1CCCCC1", "EXPERIMENTAL SYSTEM": "CAKI-1 renal", "ASSIGNED LABEL": 0.0}
{"COMPOUND": "C/C(=N\\O)c1cccc(Nc2nc3ccccc3c3occc23)c1", "EXPERIMENTAL SYSTEM": "CAKI-1 renal", "ASSIGNED LABEL": 1.0}
{"COMPOUND": "CCCCCCCC(=O)OCC1OC(n2cc(F)c(=O)[nH]c2=O)C(NC(=O)OCc2ccccc2)C(OC(=O)CCCCCCC)C1O (configuration not stated)", "EXPERIMENTAL SYSTEM": "CAKI-1 renal", "ASSIGNED LABEL": 1.0}
{"COMPOUND": "COc1ccc(N=C2C(=Nc3ccc(OC)cc3)N(S(=O)(=O)c3ccccc3)C(=S)N2c2ccc(OC)cc2)cc1", "EXPERIMENTAL SYSTEM": "CAKI-1 renal", "ASSIGNED LABEL": 1.0}
{"COMPOUND": "CC(C)c1cccc(C(C)C)c1N=C(N)C#N", "EXPERIMENTAL SYSTEM": "CAKI-1 renal", "ASSIGNED LABEL": 1.0}
{"COMPOUND": "CCCC1C(=O)C(CC)Cc2c(OC)ccc(OC)c21 (configuration not stated)", "EXPERIMENTAL SYSTEM": "CAKI-1 renal", "ASSIGNED LABEL": 1.0}
